Biological target: T1, SlmA (UniProt P0C093 1-198)
T1 sequence: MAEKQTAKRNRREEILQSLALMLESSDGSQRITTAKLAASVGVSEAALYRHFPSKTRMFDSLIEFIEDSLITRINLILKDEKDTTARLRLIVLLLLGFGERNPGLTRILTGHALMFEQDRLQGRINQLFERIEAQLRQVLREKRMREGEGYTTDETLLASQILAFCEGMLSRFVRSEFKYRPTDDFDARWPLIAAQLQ
Assay: fluorescence anisotropy; 300 mM KCl, 2 mM MgCl2; apparent Kd, 4:1 model; dG 17.6 ± 0.2 kcal/mol; 50 mM Tris-HCl, 300 mM KCl, 2 mM MgCl2, pH 7.5, 20 C; 10 nM labeled SBS in SlmA anisotropy titrations
Conditions: protein: recombinant; tags: SUMO tag cleaved off; chain copies: 4; label: 5' fluorescein on sense strand (anisotropy); blunt
parameter: Kd (nM)
Unit nM implied. Number only.

Look up Kd for this binder: SBS12 (dsDNA) DNA 1: CGCGAAGTGAACGCTAACTCACTG DNA 2: CAGTGAGTTAGCGTTCACTTCGCG
270

Values compiled from paper PMC4423959.
